# target: Protein-arginine deiminase type-2 (Homo sapiens, UniProt Q9Y2J8)
# Sequence (Q9Y2J8 whole entry): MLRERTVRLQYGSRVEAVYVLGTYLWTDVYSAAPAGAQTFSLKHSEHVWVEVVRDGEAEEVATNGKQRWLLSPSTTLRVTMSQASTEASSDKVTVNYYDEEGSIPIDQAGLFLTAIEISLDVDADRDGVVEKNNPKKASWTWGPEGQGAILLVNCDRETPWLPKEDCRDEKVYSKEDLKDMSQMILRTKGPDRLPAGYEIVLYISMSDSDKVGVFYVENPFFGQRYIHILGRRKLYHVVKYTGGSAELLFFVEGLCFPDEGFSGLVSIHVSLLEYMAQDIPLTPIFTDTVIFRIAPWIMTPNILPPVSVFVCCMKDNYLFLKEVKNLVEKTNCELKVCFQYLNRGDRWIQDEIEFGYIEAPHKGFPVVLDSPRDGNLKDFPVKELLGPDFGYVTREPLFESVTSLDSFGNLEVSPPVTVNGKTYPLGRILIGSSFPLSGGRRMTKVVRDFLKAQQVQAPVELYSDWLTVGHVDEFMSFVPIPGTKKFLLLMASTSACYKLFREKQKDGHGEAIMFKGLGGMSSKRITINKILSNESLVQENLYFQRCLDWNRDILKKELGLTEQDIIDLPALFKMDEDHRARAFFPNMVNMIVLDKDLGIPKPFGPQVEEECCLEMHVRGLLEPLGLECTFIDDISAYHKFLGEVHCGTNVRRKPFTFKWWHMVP
# test description: Inhibition of recombinant wild-type PAD2 (unknown origin) using N-alpha-Benzoyl-L-arginine ethyl ester as substrate preincubated for 15 mins followed by substrate addition measured after 15 mins by COLDER assay
Mark TRUE only when IC50 stays strictly below 700 nM. Values equal to the cut-off are FALSE.

Q: Given COC1=C(N)C(=O)c2nc(-c3nc(C(=O)O)c(C)c(-c4ccc(OC)c(OC)c4O)c3N)ccc2C1=O [STREPTONIGRIN] , is recorded IC50 strictly lower than 700 nM?
Ans: FALSE

Q: Strictly below 700 nM in IC50? NC1=CC(=O)c2cccnc2C1=O
Ans: FALSE

Q: Report whether reported IC50 is lower than 700 nM (strictly) for NC1=CC(=O)c2ccc(-c3ccccn3)nc2C1=O
Ans: TRUE

Q: Check if IC50 falls below 700 nM for NC1=CC(=O)c2ccc(-c3cccc(C(=O)O)n3)nc2C1=O .
Ans: TRUE

Q: Hello, I'm reviewing records and need to know if IC50 of COC1=C(Br)C(=O)c2ncccc2C1=O is below 700 nM. Could you check?
Ans: FALSE

* * *

# Test system: NIH3T3
# test description: Cytotoxicity against mouse NIH/3T3 cells assessed as cell viability at 10 uM after 3 days by XTT-PMS assay relative to control
# Assay type: cell-based
# condition label: nih3t3, 72 h
result type: Activity

Q: Please give the documented Activity of COC1=C(Br)C(=O)c2ncccc2C1=O
Ans: Active

Q: Determine its reported Activity: NC1=C(Br)C(=O)c2cccnc2C1=O
Ans: <= 30%

Q: Respond only with Activity recorded for NC1=CC(=O)c2ccc(-c3ccccn3)nc2C1=O
Ans: <= 30%

Q: Tell me measured Activity for NC1=CC(=O)c2ccc(-c3cccc(C(=O)O)n3)nc2C1=O please.
Ans: Active

Switching to the query record.
Q: Consider the compound NC1=CC(=O)c2cccnc2C1=O . State its measured Activity.
Ans: <= 30%

* * *

# target: Protein-arginine deiminase type-1 (Homo sapiens)
# Sequence (Q9ULC6 whole entry): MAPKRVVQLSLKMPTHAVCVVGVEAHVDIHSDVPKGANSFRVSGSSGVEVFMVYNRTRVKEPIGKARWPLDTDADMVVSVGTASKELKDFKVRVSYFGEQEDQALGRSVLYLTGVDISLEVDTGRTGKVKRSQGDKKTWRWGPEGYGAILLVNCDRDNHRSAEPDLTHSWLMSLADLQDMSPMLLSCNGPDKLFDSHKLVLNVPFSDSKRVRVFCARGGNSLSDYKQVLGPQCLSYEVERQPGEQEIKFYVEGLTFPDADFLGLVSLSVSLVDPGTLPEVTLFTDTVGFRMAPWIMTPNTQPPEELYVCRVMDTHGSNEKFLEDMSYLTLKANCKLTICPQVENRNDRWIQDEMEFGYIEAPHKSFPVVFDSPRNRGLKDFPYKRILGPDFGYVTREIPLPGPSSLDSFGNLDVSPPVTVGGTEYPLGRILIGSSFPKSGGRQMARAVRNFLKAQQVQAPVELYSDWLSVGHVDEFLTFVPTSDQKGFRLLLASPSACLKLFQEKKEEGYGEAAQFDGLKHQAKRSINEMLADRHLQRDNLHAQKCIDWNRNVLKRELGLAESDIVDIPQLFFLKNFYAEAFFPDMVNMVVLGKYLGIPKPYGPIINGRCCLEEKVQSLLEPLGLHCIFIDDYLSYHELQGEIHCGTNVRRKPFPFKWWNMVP
# test description: Inhibition of recombinant wild-type PAD1 (unknown origin) using N-alpha-Benzoyl-L-arginine amide as substrate preincubated for 15 mins followed by substrate addition measured after 15 mins by COLDER assay
Exercise: state measured pIC50 for each of the compounds provided.
Hey, just a heads up that pIC50 is the negative log base 10 of the concentration in molar.

Q: Quick one: give measured pIC50 for NC1=CC(=O)c2ccc(-c3cccc(C(=O)O)n3)nc2C1=O
Ans: 7.15

Q: Provide only the value of recorded pIC50 for COC1=C(Br)C(=O)c2ncccc2C1=O
Ans: 5.34

Q: Please list pIC50 recorded for the compound NC1=CC(=O)c2ccc(-c3ccccn3)nc2C1=O
Ans: 6.02

Q: Find the measured pIC50 of COC1=C(N)C(=O)c2nc(-c3nc(C(=O)O)c(C)c(-c4ccc(OC)c(OC)c4O)c3N)ccc2C1=O and report it.
Ans: 4.32

Q: Consider the compound NC1=CC(=O)c2cccnc2C1=O and give its recorded pIC50.
Ans: 6.02

* * *

# target: Protein-arginine deiminase type-3 (Homo sapiens)
# Sequence (Q9ULW8 whole entry): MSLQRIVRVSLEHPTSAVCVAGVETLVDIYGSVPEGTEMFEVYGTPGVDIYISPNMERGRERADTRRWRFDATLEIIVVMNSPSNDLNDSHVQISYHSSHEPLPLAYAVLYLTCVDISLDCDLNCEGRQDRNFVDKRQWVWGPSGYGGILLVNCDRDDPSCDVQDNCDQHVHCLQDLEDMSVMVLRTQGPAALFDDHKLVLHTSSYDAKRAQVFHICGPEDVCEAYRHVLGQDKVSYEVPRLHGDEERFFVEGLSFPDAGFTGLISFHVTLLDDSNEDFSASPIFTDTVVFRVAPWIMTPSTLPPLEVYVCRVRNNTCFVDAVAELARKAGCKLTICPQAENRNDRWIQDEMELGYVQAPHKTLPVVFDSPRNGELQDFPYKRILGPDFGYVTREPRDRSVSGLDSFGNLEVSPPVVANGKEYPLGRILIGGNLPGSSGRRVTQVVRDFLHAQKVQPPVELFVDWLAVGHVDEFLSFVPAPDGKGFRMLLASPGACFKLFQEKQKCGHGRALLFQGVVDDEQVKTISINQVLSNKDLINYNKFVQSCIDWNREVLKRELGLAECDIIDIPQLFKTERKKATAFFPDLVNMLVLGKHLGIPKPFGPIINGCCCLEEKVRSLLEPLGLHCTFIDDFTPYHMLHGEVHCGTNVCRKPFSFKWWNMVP
# test description: Inhibition of recombinant wild-type PAD3 (unknown origin) using N-alpha-Benzoyl-L-arginine amide as substrate preincubated for 15 mins followed by substrate addition measured after 15 mins by COLDER assay
For each entry below, report its pIC50 value.
Interpret pIC50 as the negative base-10 log of the concentration measured in mol/L.

Q: # return recorded pIC50 for entry NC1=CC(=O)c2ccc(-c3cccc(C(=O)O)n3)nc2C1=O
Ans: 6.15

Q: Answer with the recorded pIC50 for the molecule listed here: NC1=CC(=O)c2ccc(-c3ccccn3)nc2C1=O
Ans: 6.89

Q: Entry COC1=C(Br)C(=O)c2ncccc2C1=O needs its pIC50 filled in; supply it.
Ans: 5.36

Q: Please give the documented pIC50 of COC1=C(N)C(=O)c2nc(-c3nc(C(=O)O)c(C)c(-c4ccc(OC)c(OC)c4O)c3N)ccc2C1=O
Ans: 6.37

Q: Respond only with pIC50 recorded for NC1=CC(=O)c2cccnc2C1=O
Ans: 6.77
